# reported bioavailability; entries follow
experiment: Oral bioavailability in rat at 10 mg/kg, po; conditions: in vivo
Write the number in % without appending the unit.

1. O=C(CC(c1ccccc1)c1ccccc1)N1CCN(C(c2ccccc2)c2ccccc2)CC1; 30

The record that follows has no bioavailability shown yet.
Using the record for "COc1cc(C(=O)N2CCN(CCCCCC(c3ccc(F)cc3)c3ccc(F)cc3)CC2)cc(OC)c1OC" , state its measured bioavailability. 21

---

target: hERG (KCNH2) (Homo sapiens); assay: Inhibition of human ERG current at 1 uM
Sequence (Q12809 whole entry): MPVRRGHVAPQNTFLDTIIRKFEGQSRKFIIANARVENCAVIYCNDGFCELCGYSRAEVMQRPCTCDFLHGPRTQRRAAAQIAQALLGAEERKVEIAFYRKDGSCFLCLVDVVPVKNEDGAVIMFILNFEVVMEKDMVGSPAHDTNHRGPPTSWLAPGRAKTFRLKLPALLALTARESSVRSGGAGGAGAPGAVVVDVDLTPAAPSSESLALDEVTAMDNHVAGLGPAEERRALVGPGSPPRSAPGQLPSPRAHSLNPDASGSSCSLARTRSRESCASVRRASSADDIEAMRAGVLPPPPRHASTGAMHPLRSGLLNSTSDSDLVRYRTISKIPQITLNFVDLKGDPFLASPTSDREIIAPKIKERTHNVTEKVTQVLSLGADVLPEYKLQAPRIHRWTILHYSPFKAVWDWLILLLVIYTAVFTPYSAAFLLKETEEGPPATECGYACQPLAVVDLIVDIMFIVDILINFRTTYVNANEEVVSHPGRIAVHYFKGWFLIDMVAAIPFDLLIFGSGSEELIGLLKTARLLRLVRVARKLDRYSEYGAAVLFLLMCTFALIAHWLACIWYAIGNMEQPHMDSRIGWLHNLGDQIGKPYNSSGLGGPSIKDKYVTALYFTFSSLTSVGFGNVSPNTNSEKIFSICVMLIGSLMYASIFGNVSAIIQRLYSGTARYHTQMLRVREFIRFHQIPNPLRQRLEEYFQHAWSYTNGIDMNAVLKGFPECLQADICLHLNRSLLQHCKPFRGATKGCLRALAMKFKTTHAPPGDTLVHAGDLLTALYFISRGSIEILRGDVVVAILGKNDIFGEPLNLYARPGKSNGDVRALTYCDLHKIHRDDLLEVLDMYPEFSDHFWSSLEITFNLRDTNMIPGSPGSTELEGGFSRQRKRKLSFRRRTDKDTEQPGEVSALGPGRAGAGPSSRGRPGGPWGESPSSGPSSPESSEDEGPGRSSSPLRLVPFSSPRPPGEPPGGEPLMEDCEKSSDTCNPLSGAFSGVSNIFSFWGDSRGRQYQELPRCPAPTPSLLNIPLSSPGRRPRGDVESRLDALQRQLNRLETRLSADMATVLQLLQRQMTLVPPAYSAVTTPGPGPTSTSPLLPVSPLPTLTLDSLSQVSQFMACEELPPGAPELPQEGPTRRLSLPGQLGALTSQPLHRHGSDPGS
Attribute Measured: inhibition at 1 µM (%)
Write the number in % without appending the unit.

Using the record for O=C(CC(c1ccccc1)c1ccccc1)N1CCN(C(c2ccccc2)c2ccccc2)CC1 [Z160] , state its measured inhibition at 1 µM. 24.8

---

# reported AUC(0-t) at 8 h; entries follow
test: AUC (0 to 8 hrs) in rat at 10 mg/kg, po; settings: plasma
Could you give the number and then its unit, please?

1) O=C(CC(c1ccccc1)c1ccccc1)N1CCN(C(c2ccccc2)c2ccccc2)CC1 [Z160]; 999 ng·h/mL

Using the record for "COc1cc(C(=O)N2CCN(CCCCCC(c3ccc(F)cc3)c3ccc(F)cc3)CC2)cc(OC)c1OC" , state its measured AUC(0-t) at 8 h. 753 ng·h/mL
